# Tested on: M14
# PROTOCOL_SUMMARY: NCI tumour cell line growth inhibition, 48 h
Activity calls are given as the source filed them. Rule as the data show it: active = GI50 up to about 1.1 µM and inactive = higher.
// one of 1 for active, 0 for inactive, no free text

Some solved cases for reference:
>>> assigned_category("CCN(CCO)C(=O)C1(c2ccccc2)CCCCC1")
0
>>> assigned_category("COc1cc(-c2oc3c(OC)cc(OC)c(O)c3c(=O)c2OC)cc(OC)c1OC")
0
>>> assigned_category("O=C1c2ccccc2C(=O)c2c1ccc(O)c2O")
0
>>> assigned_category("S=C(S)N1CCN(c2ccccc2)CC1")
0
>>> assigned_category("O/N=C1/CCCCCC1NO (stereo unspecified)")
0

**Query** Fill in: this test's call for Cc1ccc(S(=O)(=O)NC(=O)NC(CCCCNC(=N)N)C(=O)O)cc1 (stereo unspecified) is ___
**Result** 0

**Query** Fill in: this test's call for `O=[PH](O)c1ccccn1` is ___
**Result** 0

**Query** Fill in: this test's call for `O=c1[nH]nc(-c2ccccc2)n1/N=C/c1ccccc1Cl` is ___
**Result** 0
